tested on: PC-3 PIP/flu tumor-bearing mice; test: Biodistribution study in PC-3 PIP/flu tumor-bearing mice; assay type: in vivo, athymic nude Balb/c mice; conditions: 24 h p.i., PC-3 PIP/flu tumor-bearing mice
Exercise: state measured Salivary glands for each of the compounds provided.
One number for each entry, in % IA/g.

CC(C)Cc1ccc(C(C)C(=O)NC(CC(=O)NCCCCC(NC(=O)CN2CCN(CC(=O)O)CCN(CC(=O)O)CCN(CC(=O)O)CC2)C(=O)NCC2CCC(C(=O)NC(Cc3ccc4ccccc4c3)C(=O)NCCCCC(NC(=O)NC(CCC(=O)O)C(=O)O)C(=O)O)CC2)C(=O)O)cc1 (stereo not drawn) [^177Lu-Ibu-Dβ-PSMA, metal not drawn] : 0.61
CC(C)Cc1ccc(C(C)C(=O)NCCCCC(NC(=O)CN2CCN(CC(=O)O)CCN(CC(=O)O)CCN(CC(=O)O)CC2)C(=O)NCC2CCC(C(=O)NC(Cc3ccc4ccccc4c3)C(=O)NCCCCC(NC(=O)NC(CCC(=O)O)C(=O)O)C(=O)O)CC2)cc1 (stereo not drawn) [^177Lu-Ibu-PSMA, metal not drawn] : 0.34
CC(C)Cc1ccc(C(C)C(=O)NC(CCN)C(=O)NCCCCC(NC(=O)CN2CCN(CC(=O)O)CCN(CC(=O)O)CCN(CC(=O)O)CC2)C(=O)NCC2CCC(C(=O)NC(Cc3ccc4ccccc4c3)C(=O)NCCCCC(NC(=O)NC(CCC(=O)O)C(=O)O)C(=O)O)CC2)cc1 (stereo not drawn) [^177Lu-Ibu-DAB-PSMA, metal not drawn] : 0.56

Batch of 3 compounds: report Salivary glands for each.
1. CC(C)Cc1ccc(C(C)C(=O)NCC[C@H](NC(=O)CN2CCN(CC(=O)O)CCN(CC(=O)O)CCN(CC(=O)O)CC2)C(=O)NCC2CCC(C(=O)N[C@@H](Cc3ccc4ccccc4c3)C(=O)NCCCC[C@H](NC(=O)N[C@@H](CCC(=O)O)C(=O)O)C(=O)O)CC2)cc1 (stereo partly drawn) [^177Lu-Ibu-sPSMA, metal not drawn]
2. CC(C)Cc1ccc(C(C)C(=O)NC(CC(=O)O)C(=O)NCCCCC(NC(=O)CN2CCN(CC(=O)O)CCN(CC(=O)O)CCN(CC(=O)O)CC2)C(=O)NCC2CCC(C(=O)NC(Cc3ccc4ccccc4c3)C(=O)NCCCCC(NC(=O)NC(CCC(=O)O)C(=O)O)C(=O)O)CC2)cc1 (stereo not drawn) [^177Lu-Ibu-Dα-PSMA, metal not drawn]
3. CC(C)Cc1ccc(C(C)C(=O)NC(CC(N)=O)C(=O)NCCCCC(NC(=O)CN2CCN(CC(=O)O)CCN(CC(=O)O)CCN(CC(=O)O)CC2)C(=O)NCC2CCC(C(=O)NC(Cc3ccc4ccccc4c3)C(=O)NCCCCC(NC(=O)NC(CCC(=O)O)C(=O)O)C(=O)O)CC2)cc1 (stereo not drawn) [^177Lu-Ibu-N-PSMA, metal not drawn]

[out]
1: 0.37; 2: 0.21; 3: 0.57

----------
system: PC-3 PIP/flu tumor-bearing mice; assay: Biodistribution study in PC-3 PIP/flu tumor-bearing mice; type: in vivo, athymic nude Balb/c mice; conditions: 4 h p.i., PC-3 PIP/flu tumor-bearing mice
Exercise: state measured Bone for each of the compounds provided.
Answers are plain numbers, in % IA/g.

CC(C)Cc1ccc(C(C)C(=O)NC(CC(=O)NCCCCC(NC(=O)CN2CCN(CC(=O)O)CCN(CC(=O)O)CCN(CC(=O)O)CC2)C(=O)NCC2CCC(C(=O)NC(Cc3ccc4ccccc4c3)C(=O)NCCCCC(NC(=O)NC(CCC(=O)O)C(=O)O)C(=O)O)CC2)C(=O)O)cc1 (stereo not drawn) [^177Lu-Ibu-Dβ-PSMA, metal not drawn] : 1.87

Batch of 2 compounds: report Bone for each.
1. CC(C)Cc1ccc(C(C)C(=O)NCCCCC(NC(=O)CN2CCN(CC(=O)O)CCN(CC(=O)O)CCN(CC(=O)O)CC2)C(=O)NCC2CCC(C(=O)NC(Cc3ccc4ccccc4c3)C(=O)NCCCCC(NC(=O)NC(CCC(=O)O)C(=O)O)C(=O)O)CC2)cc1 (stereo not drawn) [^177Lu-Ibu-PSMA, metal not drawn]
2. CC(C)Cc1ccc(C(C)C(=O)NC(CCN)C(=O)NCCCCC(NC(=O)CN2CCN(CC(=O)O)CCN(CC(=O)O)CCN(CC(=O)O)CC2)C(=O)NCC2CCC(C(=O)NC(Cc3ccc4ccccc4c3)C(=O)NCCCCC(NC(=O)NC(CCC(=O)O)C(=O)O)C(=O)O)CC2)cc1 (stereo not drawn) [^177Lu-Ibu-DAB-PSMA, metal not drawn]

[out]
1.01
0.62

----------
System: PC-3 PIP/flu tumor-bearing mice
Test: Biodistribution study in PC-3 PIP/flu tumor-bearing mice
Format: in vivo, athymic nude Balb/c mice
Details: 4 h p.i., PC-3 PIP/flu tumor-bearing mice
Procedure: In vivo experiments were approved by the local veterinarian department and conducted in accordance with the Swiss law of animal protection. Mice were obtained from Charles River Laboratories, Sulzfeld, Germany, at the age of 5-6 weeks. […] Biodistribution studies were performed 12-15 days after PC-3 PIP/flu tumor cell inoculation. […] Selected tissues and organs were collected, weighed and measured using a γ-counter. […]
measurementLabel: Blood (% IA/g)
Numbers only, in % IA/g.

Consider the worked cases shown below.
CC(C)Cc1ccc(C(C)C(=O)NCCCCC(NC(=O)CN2CCN(CC(=O)O)CCN(CC(=O)O)CCN(CC(=O)O)CC2)C(=O)NCC2CCC(C(=O)NC(Cc3ccc4ccccc4c3)C(=O)NCCCCC(NC(=O)NC(CCC(=O)O)C(=O)O)C(=O)O)CC2)cc1 (stereo not drawn) [^177Lu-Ibu-PSMA, metal not drawn] : 5.96
CC(C)Cc1ccc(C(C)C(=O)NC(CC(=O)O)C(=O)NCCCCC(NC(=O)CN2CCN(CC(=O)O)CCN(CC(=O)O)CCN(CC(=O)O)CC2)C(=O)NCC2CCC(C(=O)NC(Cc3ccc4ccccc4c3)C(=O)NCCCCC(NC(=O)NC(CCC(=O)O)C(=O)O)C(=O)O)CC2)cc1 (stereo not drawn) [^177Lu-Ibu-Dα-PSMA, metal not drawn] : 2.33

Continue with the molecule presented below.
For record CC(C)Cc1ccc(C(C)C(=O)NC(CC(N)=O)C(=O)NCCCCC(NC(=O)CN2CCN(CC(=O)O)CCN(CC(=O)O)CCN(CC(=O)O)CC2)C(=O)NCC2CCC(C(=O)NC(Cc3ccc4ccccc4c3)C(=O)NCCCCC(NC(=O)NC(CCC(=O)O)C(=O)O)C(=O)O)CC2)cc1 (stereo not drawn) [^177Lu-Ibu-N-PSMA, metal not drawn] the listed Blood is 3.58

----------
test system: PC-3 PIP/flu tumor-bearing mice; test: Biodistribution study in PC-3 PIP/flu tumor-bearing mice; type: in vivo, athymic nude Balb/c mice; details: 4 h p.i., PC-3 PIP/flu tumor-bearing mice
Exercise: state measured Heart for each of the compounds provided.

CC(C)Cc1ccc(C(C)C(=O)NCCCCC(NC(=O)CN2CCN(CC(=O)O)CCN(CC(=O)O)CCN(CC(=O)O)CC2)C(=O)NCC2CCC(C(=O)NC(Cc3ccc4ccccc4c3)C(=O)NCCCCC(NC(=O)NC(CCC(=O)O)C(=O)O)C(=O)O)CC2)cc1 (stereo not drawn) [^177Lu-Ibu-PSMA, metal not drawn] : 2.28 ± 0.68 % IA/g
CC(C)Cc1ccc(C(C)C(=O)NC(CC(=O)O)C(=O)NCCCCC(NC(=O)CN2CCN(CC(=O)O)CCN(CC(=O)O)CCN(CC(=O)O)CC2)C(=O)NCC2CCC(C(=O)NC(Cc3ccc4ccccc4c3)C(=O)NCCCCC(NC(=O)NC(CCC(=O)O)C(=O)O)C(=O)O)CC2)cc1 (stereo not drawn) [^177Lu-Ibu-Dα-PSMA, metal not drawn] : 0.89 ± 0.27 % IA/g

Continue with the compound presented below.
Reported Heart (PC-3 PIP/flu tumor-bearing mice) for entry CC(C)Cc1ccc(C(C)C(=O)NC(CC(=O)NCCCCC(NC(=O)CN2CCN(CC(=O)O)CCN(CC(=O)O)CCN(CC(=O)O)CC2)C(=O)NCC2CCC(C(=O)NC(Cc3ccc4ccccc4c3)C(=O)NCCCCC(NC(=O)NC(CCC(=O)O)C(=O)O)C(=O)O)CC2)C(=O)O)cc1 (stereo not drawn) [^177Lu-Ibu-Dβ-PSMA, metal not drawn] is 4.19 ± 0.23 % IA/g

----------
test system: PC-3 PIP/flu tumor-bearing mice; assay: Biodistribution study in PC-3 PIP/flu tumor-bearing mice; type: in vivo, athymic nude Balb/c mice; conditions: 4 h p.i., PC-3 PIP/flu tumor-bearing mice
measurementLabel: Tumor-to-kidney

Batch of 2 molecules: report Tumor-to-kidney for each.
1. CC(C)Cc1ccc(C(C)C(=O)NCCCCC(NC(=O)CN2CCN(CC(=O)O)CCN(CC(=O)O)CCN(CC(=O)O)CC2)C(=O)NCC2CCC(C(=O)NC(Cc3ccc4ccccc4c3)C(=O)NCCCCC(NC(=O)NC(CCC(=O)O)C(=O)O)C(=O)O)CC2)cc1 (centres unmarked) [^177Lu-Ibu-PSMA, metal not drawn]
2. CC(C)Cc1ccc(C(C)C(=O)NCC[C@H](NC(=O)CN2CCN(CC(=O)O)CCN(CC(=O)O)CCN(CC(=O)O)CC2)C(=O)NCC2CCC(C(=O)N[C@@H](Cc3ccc4ccccc4c3)C(=O)NCCCC[C@H](NC(=O)N[C@@H](CCC(=O)O)C(=O)O)C(=O)O)CC2)cc1 (some centres unmarked) [^177Lu-Ibu-sPSMA, metal not drawn]

[out]
1. 2.60 ± 0.08
2. 3.6 ± 0.2

Numbers sourced from patent US20220024882A1.
